target: Aurora kinase C (Homo sapiens) (UniProt Q9UQB9); details: at 10 µM
Sequence (Q9UQB9 whole entry): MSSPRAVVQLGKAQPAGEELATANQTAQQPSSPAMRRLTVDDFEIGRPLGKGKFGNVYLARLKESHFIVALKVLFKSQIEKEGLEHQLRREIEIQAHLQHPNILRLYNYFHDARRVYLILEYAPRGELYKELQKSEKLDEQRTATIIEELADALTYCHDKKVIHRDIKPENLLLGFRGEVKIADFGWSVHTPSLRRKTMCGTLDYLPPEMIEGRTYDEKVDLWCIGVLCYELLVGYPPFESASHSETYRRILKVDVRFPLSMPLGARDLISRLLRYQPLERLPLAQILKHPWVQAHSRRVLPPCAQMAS
Here the recorded residual activity is given for each entry.
Give a bare numeral; the unit % is implied.

# molecule, unit_info, residual activity
data = [
    ("O=C(c1cc2cc(O)ccc2[nH]1)c1cc2cc(O)ccc2[nH]1", "%", 24),
    ("N#Cc1c(NC(=O)c2cccc3ccccc23)sc2c1CCCC2", "%", 97),
]

For the next question, use this compound.
[ask] Give its residual activity value. Item: COc1cc2nccc(Oc3ccc(NC(=O)Nc4cc(C)on4)c(Cl)c3)c2cc1OC
[reply] 7

====

biological target: Tyrosine-protein kinase ABL2 (Homo sapiens) (UniProt P42684); conditions: at 10 µM
Sequence (P42684 whole entry): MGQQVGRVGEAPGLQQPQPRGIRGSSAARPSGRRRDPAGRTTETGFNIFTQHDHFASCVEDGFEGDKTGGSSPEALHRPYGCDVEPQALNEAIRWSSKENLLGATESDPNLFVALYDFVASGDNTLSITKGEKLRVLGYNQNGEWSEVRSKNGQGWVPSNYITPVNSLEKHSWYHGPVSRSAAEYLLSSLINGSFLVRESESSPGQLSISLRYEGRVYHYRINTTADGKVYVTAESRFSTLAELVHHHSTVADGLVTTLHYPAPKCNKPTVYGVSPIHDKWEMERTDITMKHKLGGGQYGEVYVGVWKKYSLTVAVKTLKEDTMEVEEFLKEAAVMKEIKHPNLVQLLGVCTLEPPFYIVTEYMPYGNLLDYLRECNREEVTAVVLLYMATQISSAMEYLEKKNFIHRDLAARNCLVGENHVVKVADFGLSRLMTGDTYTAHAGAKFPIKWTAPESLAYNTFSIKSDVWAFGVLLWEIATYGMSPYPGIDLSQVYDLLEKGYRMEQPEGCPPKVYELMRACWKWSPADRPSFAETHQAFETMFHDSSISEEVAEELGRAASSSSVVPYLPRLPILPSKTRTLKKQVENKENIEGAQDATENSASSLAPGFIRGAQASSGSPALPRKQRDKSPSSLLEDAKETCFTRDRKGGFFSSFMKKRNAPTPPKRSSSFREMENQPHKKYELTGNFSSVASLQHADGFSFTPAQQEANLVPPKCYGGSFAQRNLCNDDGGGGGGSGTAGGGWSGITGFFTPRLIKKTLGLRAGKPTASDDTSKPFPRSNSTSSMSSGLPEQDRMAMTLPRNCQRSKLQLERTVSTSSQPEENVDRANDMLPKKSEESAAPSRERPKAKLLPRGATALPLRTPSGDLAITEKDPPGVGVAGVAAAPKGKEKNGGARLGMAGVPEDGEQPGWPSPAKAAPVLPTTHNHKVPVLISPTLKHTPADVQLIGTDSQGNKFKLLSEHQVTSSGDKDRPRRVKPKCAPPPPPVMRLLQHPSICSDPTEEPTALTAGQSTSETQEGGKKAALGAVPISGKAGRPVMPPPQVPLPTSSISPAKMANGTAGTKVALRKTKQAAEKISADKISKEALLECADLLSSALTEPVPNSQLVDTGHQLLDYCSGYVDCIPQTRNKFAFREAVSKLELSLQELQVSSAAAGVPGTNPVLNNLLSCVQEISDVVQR
assay_readout: residual activity (%)
Write it as a number; the unit % goes unstated.

# molecule, readout_number
data = [
    ("NC(=O)Nc1sc(-c2ccc(F)cc2)cc1C(N)=O", 19),
    ("O=S(=O)(c1cccc2cnccc12)N1CCCNCC1", 80),
    ("O=C(c1ccccc1)c1ccc(N2CCOCC2)cc1O", 98),
    ("O=C1NC(=O)c2c1c1c3ccccc3[nH]c1n1cncc21", 56),
    ("N#C/C(=C1/Nc2ccccc2S1)c1ccnc(NCCc2cccnc2)n1", 76),
    ("COc1cc2nccc(Oc3ccc(NC(=S)NC(=O)c4ccccc4C)cc3)c2cc1OC", 18),
    ("c1ccc(-c2cnc(Nc3ccc(OCCN4CCCC4)cc3)s2)cc1", 8),
    ("O=C1NC(=O)C(c2c[nH]c3ccccc23)=C1c1c[nH]c2ccccc12", 25),
    ("O=C1Cc2c([nH]c3ccc([N+](=O)[O-])cc23)-c2ccccc2N1", 76),
    ("CC(C)(C)n1nc(Cc2cccc3ccccc23)c2c(N)ncnc21", 18),
]

Let's switch to this molecule now.
[ask] Could you share which residual activity value was measured for O=C(c1cc2cc(O)ccc2[nH]1)c1cc2cc(O)ccc2[nH]1 ?
[reply] 4

====

target: Testis-specific serine/threonine-protein kinase 1 (Homo sapiens) (UniProt Q9BXA7); settings: at 10 µM
Sequence (Q9BXA7 whole entry): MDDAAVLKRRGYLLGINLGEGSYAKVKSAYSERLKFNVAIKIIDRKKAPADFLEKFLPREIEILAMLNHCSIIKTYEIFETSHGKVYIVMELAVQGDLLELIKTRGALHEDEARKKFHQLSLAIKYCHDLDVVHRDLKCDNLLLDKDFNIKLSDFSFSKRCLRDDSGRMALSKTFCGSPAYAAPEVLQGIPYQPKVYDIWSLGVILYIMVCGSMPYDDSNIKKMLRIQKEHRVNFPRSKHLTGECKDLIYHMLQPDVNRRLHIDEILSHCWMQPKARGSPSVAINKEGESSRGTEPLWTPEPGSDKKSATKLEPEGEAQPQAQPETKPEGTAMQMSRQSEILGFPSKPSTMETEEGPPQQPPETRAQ
Cut-off 80% on residual activity: below means yes, at or above means no.

[ask] Given the entry O=C(O)/C=C/c1cc(Br)c(Br)c(Br)c1Br , would its reported residual activity be below 80%?
[reply] no

[ask] Just wondering, is residual activity of O=C(c1cc2cc(O)ccc2[nH]1)c1cc2cc(O)ccc2[nH]1 below 80%?
[reply] yes

[ask] Just wondering, is residual activity of O=S(=O)(NCCNC/C=C/c1ccc(Br)cc1)c1cccc2cnccc12 below 80%?
[reply] yes

[ask] Would you kindly verify if residual activity of Nc1ncnc2c1c(-c1ccc(Oc3ccccc3)cc1)cn2C1CCCC1 is strictly less than 80%?
[reply] no

[ask] Take the compound O=C1NC(=O)C(c2cn(CCCO)c3ncccc23)=C1c1cnccn1 and say whether its residual activity is less than 80%.
[reply] no

[ask] Hi there! Is residual activity for COc1ccc(-c2cnc3c(-c4ccsc4)cnn3c2)cc1 below 80%, do you know?
[reply] no

====

target: Tyrosine-protein kinase Fer (Homo sapiens) (UniProt P16591); conditions: at 10 µM
Sequence (P16591 whole entry, looked up): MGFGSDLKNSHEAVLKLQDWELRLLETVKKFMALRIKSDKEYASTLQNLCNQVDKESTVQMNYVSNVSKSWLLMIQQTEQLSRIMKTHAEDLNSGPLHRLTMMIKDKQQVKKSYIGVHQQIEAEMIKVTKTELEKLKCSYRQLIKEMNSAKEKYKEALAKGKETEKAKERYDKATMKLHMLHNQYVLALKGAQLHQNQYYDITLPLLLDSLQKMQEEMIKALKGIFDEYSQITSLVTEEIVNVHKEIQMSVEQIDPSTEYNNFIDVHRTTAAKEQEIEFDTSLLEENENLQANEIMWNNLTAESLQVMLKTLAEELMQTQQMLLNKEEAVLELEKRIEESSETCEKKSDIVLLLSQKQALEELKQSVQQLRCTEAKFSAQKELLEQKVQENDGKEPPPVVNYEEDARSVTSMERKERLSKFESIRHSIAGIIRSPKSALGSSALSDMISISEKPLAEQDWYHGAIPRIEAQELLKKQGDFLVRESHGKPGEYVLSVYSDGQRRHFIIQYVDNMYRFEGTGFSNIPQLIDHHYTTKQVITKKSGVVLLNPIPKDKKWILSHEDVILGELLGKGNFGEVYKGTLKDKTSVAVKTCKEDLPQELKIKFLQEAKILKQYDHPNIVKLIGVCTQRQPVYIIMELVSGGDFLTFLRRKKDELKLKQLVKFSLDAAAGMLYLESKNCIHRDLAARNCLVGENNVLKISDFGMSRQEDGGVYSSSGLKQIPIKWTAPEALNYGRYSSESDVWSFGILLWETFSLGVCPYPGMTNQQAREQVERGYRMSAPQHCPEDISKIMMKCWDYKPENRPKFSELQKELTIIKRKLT
Kindly note that classification relies on residual activity with these boundaries: category 1 (below 60%), category 2 (60% to below 90%), category 3 (90% or more)

Look over these answered cases.
# compound, classification
data = [
    ("Cn1c2ccccc2c2c3c(c4c5ccccc5n(CCC#N)c4c21)CNC3=O", "category 1"),
    ("CC(C)(C)n1nc(Cc2cccc3ccccc23)c2c(N)ncnc21", "category 1"),
    ("CC(C)c1nn(-c2c(Cl)cccc2Cl)c2nc(Cc3ccc(OCCO)cc3)[nH]c(=O)c12", "category 3"),
    ("Nc1ncnc2[nH]nc(Nc3ccc(F)cc3)c12", "category 3"),
    ("COc1cc2c(cc1OC)-c1n[nH]c(Nc3cccc(F)c3)c1C2", "category 2"),
    ("Oc1cccc(-c2nc(N3CCOCC3)c3oc4ncccc4c3n2)c1", "category 3"),
    ("N#Cc1c(NC(=O)c2cccc3ccccc23)sc2c1CCCC2", "category 3"),
    ("COc1ccc(-c2cnc3c(-c4ccsc4)cnn3c2)cc1", "category 3"),
]

[ask] // return the class label for O=C(c1ccccc1)c1ccc(N2CCOCC2)cc1O
[reply] category 3

[ask] Field: class (residual activity) — entry: Nc1nc(Nc2ccc(S(N)(=O)=O)cc2)nn1C(=O)c1c(F)cccc1F
[reply] category 1

[ask] Input CCCCc1c(-c2ccc(O)cc2)[nH]c2nccnc12 ; output its category
[reply] category 2

[ask] Classify this compound: O=C1NC(=O)C(c2cn(CCCn3ccnc3)c3ccccc23)=C1Nc1ccccc1
[reply] category 1

[ask] Bin this entry: CC(C)N(CCC(=O)c1ccc2ccccc2c1)Cc1ccccc1
[reply] category 2

[ask] // return the class label for CC(C)(C)c1nc2c3ccc(F)cc3c3c(=O)[nH]ccc3c2[nH]1
[reply] category 1

[ask] Form: Item = O=C1Nc2ccccc2/C1=C\c1c(Cl)[nH]c2ccccc12 ; Class = ?
[reply] category 2

[ask] Any idea which band Cc1cc(C)c(/C=C2\C(=O)Nc3ccccc32)[nH]1 is in?
[reply] category 1

[ask] Form: Item = Nc1ncnc2c1c(-c1ccc(Oc3ccccc3)cc1)cn2C1CCCC1 ; Class = ?
[reply] category 1

[ask] Which bin should I file O=C(c1cc2cc(O)ccc2[nH]1)c1cc2cc(O)ccc2[nH]1 under?
[reply] category 1

====

target: cAMP-dependent protein kinase catalytic subunit alpha (Homo sapiens) (UniProt P17612); settings: at 10 µM
# residual activity per record follows
Report the value in % with no unit label.

[ask] Entry O=c1cc(N2CCNCC2)oc2c(-c3ccccc3)cccc12 : reported residual activity = ?
[reply] 83

[ask] Would you mind telling me what residual activity value was observed for O=C1NC(=O)C(c2cn(CCCn3ccnc3)c3ccccc23)=C1Nc1ccccc1 ?
[reply] 43

[ask] Look up residual activity for this molecule: O=c1cc(N2CCOCC2)oc2c1ccc1ccccc12
[reply] 104

[ask] Returns the measured residual activity for the input molecule. Input: Oc1cccc(-c2nc(N3CCOCC3)c3oc4ncccc4c3n2)c1
[reply] 85

[ask] Can you share its residual activity? I mean this molecule: N#Cc1c(NC(=O)c2cccc3ccccc23)sc2c1CCCC2
[reply] 91

[ask] Need residual activity, item Nc1nccc(-c2c(-c3ccc(F)cc3)ncn2C2CCNCC2)n1
[reply] 64

====

target: Ephrin type-B receptor 4 (Homo sapiens) (UniProt P54760); conditions: at 10 µM
Sequence (P54760 whole entry): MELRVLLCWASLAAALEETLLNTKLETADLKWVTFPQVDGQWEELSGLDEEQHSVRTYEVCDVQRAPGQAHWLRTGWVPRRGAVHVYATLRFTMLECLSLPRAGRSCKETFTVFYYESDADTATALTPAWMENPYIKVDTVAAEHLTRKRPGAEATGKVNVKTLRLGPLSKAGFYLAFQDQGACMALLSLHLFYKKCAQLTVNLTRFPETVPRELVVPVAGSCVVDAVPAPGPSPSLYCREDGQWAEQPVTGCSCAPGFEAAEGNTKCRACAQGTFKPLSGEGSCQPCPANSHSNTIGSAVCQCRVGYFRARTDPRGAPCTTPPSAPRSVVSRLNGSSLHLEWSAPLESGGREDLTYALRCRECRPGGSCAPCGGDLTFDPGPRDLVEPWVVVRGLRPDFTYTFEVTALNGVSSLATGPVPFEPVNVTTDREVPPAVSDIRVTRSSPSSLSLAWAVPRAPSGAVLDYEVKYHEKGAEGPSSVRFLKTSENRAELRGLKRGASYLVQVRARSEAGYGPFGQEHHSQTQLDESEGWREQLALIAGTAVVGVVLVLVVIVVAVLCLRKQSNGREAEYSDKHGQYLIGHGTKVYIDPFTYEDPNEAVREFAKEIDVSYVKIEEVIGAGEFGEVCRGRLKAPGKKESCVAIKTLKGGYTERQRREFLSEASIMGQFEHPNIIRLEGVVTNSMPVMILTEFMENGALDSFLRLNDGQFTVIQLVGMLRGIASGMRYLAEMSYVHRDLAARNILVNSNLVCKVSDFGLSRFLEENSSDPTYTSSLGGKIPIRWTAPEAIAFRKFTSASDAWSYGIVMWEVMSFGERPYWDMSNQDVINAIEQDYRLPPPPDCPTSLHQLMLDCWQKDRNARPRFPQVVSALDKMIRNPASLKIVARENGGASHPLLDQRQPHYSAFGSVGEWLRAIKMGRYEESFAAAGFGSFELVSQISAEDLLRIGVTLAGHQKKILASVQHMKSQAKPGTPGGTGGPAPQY
Description: Millipore: Percentage of residual kinase activity of EPHB4 at 10uM relative to control. Control inhibitor: PP2 at 30.0uM. Buffer: 8 mM MOPS pH 7.0, 0.2 mM EDTA, 10 mM MnCl2
assay_readout: residual activity (%)
Answer in %, number only, no unit symbol.

The cases that follow already have their residual activity on record.
# molecule, residual activity / %
records = [
    ("COc1cc2c(cc1OC)-c1n[nH]c(Nc3cccc(F)c3)c1C2", 35),
    ("Cn1sc(=O)n(Cc2ccccc2)c1=O", 80),
    ("CC(C)(C)n1nc(Cc2cccc3ccccc23)c2c(N)ncnc21", -3),
]

[ask] For Nc1n[nH]c2nc3ccccc3nc12 , what is its reported residual activity?
[reply] 77

[ask] Which measured residual activity value corresponds to CC(C)[C@H](CO)Nc1nc(Nc2cc(N)cc(Cl)c2)c2ncn(C(C)C)c2n1 ?
[reply] 6

[ask] // residual activity lookup, key: Nc1ncnc2c1c(-c1ccc(Oc3ccccc3)cc1)cn2C1CCCC1
[reply] 89

====

Entries and their measured residual activity follow.
target: Ephrin type-A receptor 4 (Homo sapiens); settings: at 10 µM
Field: numeric (%). Do not append units.

Worked examples, 2 molecules total:
# molecule, assay_readout, unit_info, readout_number
rows = [
    ("COc1ccc(CNC(=O)Nc2ncc([N+](=O)[O-])s2)cc1", "residual activity", "%", 102),
    ("NC(=O)Nc1sc(-c2ccc(F)cc2)cc1C(N)=O", "residual activity", "%", 43),
]

# input for lookup
[ask] Entry CSc1nc(-c2ccc(F)cc2)c(-c2ccnc(NC(C)c3ccccc3)c2)[nH]1 (stereo not drawn) : reported residual activity = ?
[reply] 91

====

target: Dual specificity mitogen-activated protein kinase kinase 1 (Homo sapiens); conditions: at 10 µM
Description: Millipore: Percentage of residual kinase activity of MAP2K1 at 10uM relative to control. Control inhibitor: Phosphoric acid* at 0.3uM. Buffer: 50 mM Tris pH 7.5, 0.2 mM EGTA, 0.1% ?-mercaptoethanol, 0.01% Brij-35
assay_readout: residual activity

Some solved entries appear below for comparison.
# molecule, residual activity
measured = [
    ("NC(=O)Nc1sc(-c2ccc(F)cc2)cc1C(N)=O", "34%"),
    ("O=C1Cc2c([nH]c3ccc([N+](=O)[O-])cc23)-c2ccccc2N1", "129%"),
    ("O=c1c(-c2ccc(F)cc2)c(-c2ccncc2)[nH]n1-c1ccc(Cl)cc1", "102%"),
    ("O=C(Nc1nc2ccccc2n1CCN1CCOCC1)c1cccc([N+](=O)[O-])c1", "81%"),
    ("Nc1n[nH]c2nc3ccccc3nc12", "85%"),
]

[ask] Report residual activity for Nc1nc(Nc2ccc(S(N)(=O)=O)cc2)nn1C(=O)c1c(F)cccc1F please.
[reply] 64%

[ask] Name the recorded residual activity for Nc1ncnc2c1c(-c1ccc(Oc3ccccc3)cc1)cn2C1CCCC1 .
[reply] 24%

[ask] Please give the measured residual activity for this compound: COc1cc2nccc(Oc3ccc(NC(=S)NC(=O)c4ccccc4C)cc3)c2cc1OC
[reply] 68%

[ask] Entry under review: O=C1NC(=O)c2c1c1c3ccccc3[nH]c1n1cncc21 . Reported residual activity?
[reply] 67%

[ask] Value lookup for residual activity; key = COc1ccc2c(c1)c(C1=C(c3c[nH]c4ccccc34)C(=O)NC1=O)cn2CCCN(C)C
[reply] 75%

[ask] Tell me the measured residual activity of O=c1cc(N2CCOCC2)oc2c1ccc1ccccc12 , please.
[reply] 92%
